Molecular target: CLK1 (human) (UniProt P49759)
Sequence (P49759 whole entry, looked up): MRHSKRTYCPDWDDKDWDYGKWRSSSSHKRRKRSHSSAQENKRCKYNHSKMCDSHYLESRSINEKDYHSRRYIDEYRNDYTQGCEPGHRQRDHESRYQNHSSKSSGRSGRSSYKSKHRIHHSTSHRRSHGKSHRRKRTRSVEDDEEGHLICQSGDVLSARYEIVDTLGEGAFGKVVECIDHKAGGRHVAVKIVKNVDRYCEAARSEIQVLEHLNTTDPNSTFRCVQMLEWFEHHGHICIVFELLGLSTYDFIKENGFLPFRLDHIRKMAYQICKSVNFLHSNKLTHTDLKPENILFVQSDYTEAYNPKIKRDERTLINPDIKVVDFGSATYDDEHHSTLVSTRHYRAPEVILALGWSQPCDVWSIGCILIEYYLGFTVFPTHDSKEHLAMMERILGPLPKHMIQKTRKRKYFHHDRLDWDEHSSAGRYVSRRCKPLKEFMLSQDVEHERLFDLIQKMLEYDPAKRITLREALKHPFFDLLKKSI
Assay: KINOMEscan competition binding
Details: compound 10.0 µM
Each item that follows carries a reported kinase still bound, per cent of control.
Give the number first and the unit second.

Compound | kinase still bound, per cent of control
CNC(=O)Nc1ccc(-c2nc(N3CC4CCC(C3)O4)c3cnn(C4CCC5(CC4)OCCO5)c3n2)cc1 | 29%
Cc1cn(-c2cc(C(=O)Nc3ccc(C)c(NC(=O)c4ccno4)c3)cc(C(F)(F)F)c2)cn1 | 100%
CC(=O)c1c(C)c2cnc(Nc3ccc(N4CCNCC4)cn3)nc2n(C2CCCC2)c1=O | 1.2%
C=CC(=O)Nc1ccc(C(=O)c2sc(Nc3ccc(N4CCN(C)CC4)cc3OC)nc2N)cc1 | 0.55%
COc1cc(C)c(Sc2cnc(NC(=O)c3ccc(CNC(C)C(C)C)cc3)s2)cc1C(=O)N1CCN(C(C)=O)CC1 (stereo unspecified) | 4.9%

Data request, read-out kinase still bound, per cent of control, for COc1cc2c(Nc3ccc(NC(=O)c4ccccc4)cc3)ncnc2cc1OCCCN1CCOCC1
100%

---

kinase still bound, per cent of control for assorted compounds
Target: YSK4 (human) (UniProt Q56UN5)
Sequence (Q56UN5 whole entry, looked up): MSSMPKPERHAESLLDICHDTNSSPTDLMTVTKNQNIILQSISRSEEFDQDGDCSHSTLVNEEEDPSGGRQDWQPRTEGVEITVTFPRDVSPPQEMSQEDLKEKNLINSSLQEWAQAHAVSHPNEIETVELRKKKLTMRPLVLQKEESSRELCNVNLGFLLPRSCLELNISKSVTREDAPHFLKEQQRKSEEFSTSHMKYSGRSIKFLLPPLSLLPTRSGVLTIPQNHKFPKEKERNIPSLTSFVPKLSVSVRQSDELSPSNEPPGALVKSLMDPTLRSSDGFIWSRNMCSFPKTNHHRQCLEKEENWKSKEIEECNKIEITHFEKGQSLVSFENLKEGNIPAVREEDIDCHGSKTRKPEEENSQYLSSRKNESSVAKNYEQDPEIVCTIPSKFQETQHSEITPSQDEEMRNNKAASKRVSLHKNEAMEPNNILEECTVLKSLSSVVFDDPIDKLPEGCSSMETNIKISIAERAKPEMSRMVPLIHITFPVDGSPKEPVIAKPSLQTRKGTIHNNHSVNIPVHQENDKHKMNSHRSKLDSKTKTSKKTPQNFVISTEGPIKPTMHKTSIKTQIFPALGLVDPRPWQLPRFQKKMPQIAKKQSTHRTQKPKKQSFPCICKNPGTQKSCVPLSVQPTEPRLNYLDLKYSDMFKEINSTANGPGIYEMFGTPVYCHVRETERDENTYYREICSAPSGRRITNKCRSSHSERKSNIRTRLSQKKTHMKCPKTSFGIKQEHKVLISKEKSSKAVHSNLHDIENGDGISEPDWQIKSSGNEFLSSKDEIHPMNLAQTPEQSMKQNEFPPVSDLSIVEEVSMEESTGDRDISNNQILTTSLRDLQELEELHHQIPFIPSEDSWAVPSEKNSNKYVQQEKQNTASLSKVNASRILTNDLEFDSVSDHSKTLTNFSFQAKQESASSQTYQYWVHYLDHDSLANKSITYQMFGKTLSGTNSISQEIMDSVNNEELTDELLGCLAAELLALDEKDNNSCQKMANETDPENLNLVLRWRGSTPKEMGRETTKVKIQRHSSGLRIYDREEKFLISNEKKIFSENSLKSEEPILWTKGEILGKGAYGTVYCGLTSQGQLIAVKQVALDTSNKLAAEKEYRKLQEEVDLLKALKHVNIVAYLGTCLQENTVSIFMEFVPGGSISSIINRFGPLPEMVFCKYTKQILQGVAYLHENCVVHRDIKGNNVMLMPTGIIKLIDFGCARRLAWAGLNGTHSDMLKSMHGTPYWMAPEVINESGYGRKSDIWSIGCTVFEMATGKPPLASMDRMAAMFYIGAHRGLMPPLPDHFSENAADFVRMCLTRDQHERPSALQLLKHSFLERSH
Experiment: KINOMEscan competition binding
Conditions: compound 10.0 µM
Form entry: value (%) — number only.

// solved cases for kinase still bound, per cent of control follow
Item smiles | Assay target | Readout name | Recorded measurement
C=CC(=O)Nc1ccc(C(=O)c2sc(Nc3ccc(N4CCN(C)CC4)cc3OC)nc2N)cc1 | YSK4 (human) (UniProt Q56UN5) | kinase still bound, per cent of control | 70
O=c1[nH]c2ccccc2n1C1CCN(Cc2ccc(-c3nc4cc5[nH]cnc5cc4nc3-c3ccccc3)cc2)CC1 | YSK4 (human) (UniProt Q56UN5) | kinase still bound, per cent of control | 75
CC(=O)c1c(C)c2cnc(Nc3ccc(N4CCNCC4)cn3)nc2n(C2CCCC2)c1=O | YSK4 (human) (UniProt Q56UN5) | kinase still bound, per cent of control | 4.3
CCCS(=O)(=O)Nc1ccc(F)c(C(=O)c2c[nH]c3ncc(Cl)cc23)c1F | YSK4 (human) (UniProt Q56UN5) | kinase still bound, per cent of control | 29

Reported kinase still bound, per cent of control, compound COc1cc2c(Nc3ccc(NC(=O)c4ccccc4)cc3)ncnc2cc1OCCCN1CCOCC1 : ____
23

---

Target: ROS1 (human)
Assay: KINOMEscan competition binding
Conditions: compound 10.0 µM
Readout name: kinase still bound, per cent of control (%)
Provide only the numeric value, understood in %.

For COc1ccc(N(C(=O)Oc2cc(C(=O)Nc3cccc(C(F)(F)F)c3)ccc2C)c2ccnc(Nc3ccc(N4CCN(C)CC4)cc3)n2)c(OC)c1 , what is its reported kinase still bound, per cent of control?
1.9

Fill in the blank: the reported kinase still bound, per cent of control of COc1cc(N2CCC(C(N)=O)CC2)ccc1Nc1nc(N)c(Cl)c(Nc2ccccc2S(=O)(=O)C(C)C)n1 is ____.
3.2

What value of kinase still bound, per cent of control has been recorded for this entry: CCN1CCN(Cc2ccc(NC(=O)c3ccc(C)c(/C=C/c4cnc5[nH]ccc5c4OC)c3)cc2C(F)(F)F)CC1
100

---

Target: STK35 (human)
Experiment: KINOMEscan competition binding
Settings: compound 10.0 µM
Entries and their measured kinase still bound, per cent of control follow.
Use % as the unit, but write only the number.

Answered cases to consult:
Item smiles | Readout name | Unit of measurement | Recorded measurement
CCN(CCO)CCCOc1ccc2c(Nc3cc(CC(=O)Nc4cccc(F)c4)[nH]n3)ncnc2c1 | kinase still bound, per cent of control | % | 85
O=c1[nH]c2ccccc2n1C1CCN(Cc2ccc(-c3nc4cc5[nH]cnc5cc4nc3-c3ccccc3)cc2)CC1 | kinase still bound, per cent of control | % | 100

Proceeding to the next compound to report its kinase still bound, per cent of control.
So what's the measured kinase still bound, per cent of control for this one? COc1cc(N2CCC(C(N)=O)CC2)ccc1Nc1nc(N)c(Cl)c(Nc2ccccc2S(=O)(=O)C(C)C)n1
100

---

Target: NUAK1 (human)
Assay: KINOMEscan competition binding
Conditions: compound 10.0 µM
Readout name: kinase still bound, per cent of control (%)
A number alone suffices; assume %.

Take a look at these entries with their results.
Compound | kinase still bound, per cent of control, %
COc1ccc(N(C(=O)Oc2cc(C(=O)Nc3cccc(C(F)(F)F)c3)ccc2C)c2ccnc(Nc3ccc(N4CCN(C)CC4)cc3)n2)c(OC)c1 | 100
CCN(CCO)CCCOc1ccc2c(Nc3cc(CC(=O)Nc4cccc(F)c4)[nH]n3)ncnc2c1 | 60
N#Cc1cc(-c2ccnc(Nc3ccc(-n4cnc(-c5cccnc5)n4)cc3)n2)cc(N2CCOCC2)c1 | 100
Cc1cn(-c2cc(C(=O)Nc3ccc(C)c(NC(=O)c4ccno4)c3)cc(C(F)(F)F)c2)cn1 | 100
CNC(=O)Nc1ccc(-c2nc(N3CC4CCC(C3)O4)c3cnn(C4CCC5(CC4)OCCO5)c3n2)cc1 | 82
COc1cc(C)c(Sc2cnc(NC(=O)c3ccc(CNC(C)C(C)C)cc3)s2)cc1C(=O)N1CCN(C(C)=O)CC1 (stereo not given) | 100

Looking for the measured kinase still bound, per cent of control of CC(=O)c1c(C)c2cnc(Nc3ccc(N4CCNCC4)cn3)nc2n(C2CCCC2)c1=O , can you help?
48

Entry O=c1[nH]c2ccccc2n1C1CCN(Cc2ccc(-c3nc4cc5[nH]cnc5cc4nc3-c3ccccc3)cc2)CC1 has what kinase still bound, per cent of control?
100

So what does the record say about kinase still bound, per cent of control for CCN1CCN(Cc2ccc(NC(=O)c3ccc(C)c(/C=C/c4cnc5[nH]ccc5c4OC)c3)cc2C(F)(F)F)CC1 ?
100

Param item = CC1=C(C(=O)Nc2cc3cn[nH]c3cc2F)C(c2ccc(C(F)(F)F)cc2)CC(=O)N1 (stereo not given) ; retrieve measured kinase still bound, per cent of control.
28

---

Molecular target: BMPR1B (human)
Assay: KINOMEscan competition binding
Settings: compound 10.0 µM
Listed below: kinase still bound, per cent of control values for each entry.
The answer is to be given in %; state only the numeric part.

Would you please look over these solved cases?
Item smiles | Assay target | kinase still bound, per cent of control / %
C=CC(=O)Nc1ccc(C(=O)c2sc(Nc3ccc(N4CCN(C)CC4)cc3OC)nc2N)cc1 | BMPR1B (human) | 86
CCN1CCN(Cc2ccc(NC(=O)c3ccc(C)c(/C=C/c4cnc5[nH]ccc5c4OC)c3)cc2C(F)(F)F)CC1 | BMPR1B (human) | 14

Item under review: CCc1nc(-c2cccc(C)c2)c(-c2ccnc(NC(=O)c3ccccc3)c2)s1 . Reported kinase still bound, per cent of control?
100

What kinase still bound, per cent of control value was documented for this compound, CNC(=O)Nc1ccc(-c2nc(N3CC4CCC(C3)O4)c3cnn(C4CCC5(CC4)OCCO5)c3n2)cc1 ?
83

---

Target: UniProt O14733
Sequence (O14733 whole entry, looked up): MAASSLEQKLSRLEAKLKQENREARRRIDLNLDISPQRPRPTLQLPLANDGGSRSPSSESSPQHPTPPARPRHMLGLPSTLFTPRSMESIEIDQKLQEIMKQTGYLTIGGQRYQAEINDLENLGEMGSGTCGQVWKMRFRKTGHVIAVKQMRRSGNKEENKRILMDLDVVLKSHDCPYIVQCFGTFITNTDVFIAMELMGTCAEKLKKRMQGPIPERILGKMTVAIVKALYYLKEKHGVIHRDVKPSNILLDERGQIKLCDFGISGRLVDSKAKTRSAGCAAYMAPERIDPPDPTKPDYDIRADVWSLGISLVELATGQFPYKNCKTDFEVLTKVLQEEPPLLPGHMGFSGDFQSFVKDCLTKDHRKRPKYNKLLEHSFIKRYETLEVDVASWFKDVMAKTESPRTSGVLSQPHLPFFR
Assay: KINOMEscan competition binding
Settings: compound 10.0 µM
Mark each entry criterion met if its kinase still bound, per cent of control sits below 80%, and criterion not met for all others.

These solved cases illustrate the format of a correct answer.
Item smiles | Class assignment
CNC(=O)Nc1ccc(-c2nc(N3CC4CCC(C3)O4)c3cnn(C4CCC5(CC4)OCCO5)c3n2)cc1 | criterion not met
COc1cc2c(Nc3ccc(NC(=O)c4ccccc4)cc3)ncnc2cc1OCCCN1CCOCC1 | criterion not met
CCCS(=O)(=O)Nc1ccc(F)c(C(=O)c2c[nH]c3ncc(Cl)cc23)c1F | criterion not met
CCN1CCN(Cc2ccc(NC(=O)c3ccc(C)c(/C=C/c4cnc5[nH]ccc5c4OC)c3)cc2C(F)(F)F)CC1 | criterion met
N#C/C(=C1/Nc2ccccc2S1)c1ccnc(NCCc2cccnc2)n1 | criterion not met

Moving on to the next compound.
Given CC(=O)c1c(C)c2cnc(Nc3ccc(N4CCNCC4)cn3)nc2n(C2CCCC2)c1=O , is recorded kinase still bound, per cent of control strictly lower than 80%?
criterion not met

---

Target: IRAK3 (human)
Experiment: KINOMEscan competition binding
Details: compound 10.0 µM
Readout name: kinase still bound, per cent of control
Write the numeric value and follow it with the unit.

These recorded examples may help you get a feel for the data.
Item smiles | kinase still bound, per cent of control
CCN1CCN(Cc2ccc(NC(=O)c3ccc(C)c(/C=C/c4cnc5[nH]ccc5c4OC)c3)cc2C(F)(F)F)CC1 | 65%
CCc1nc(-c2cccc(C)c2)c(-c2ccnc(NC(=O)c3ccccc3)c2)s1 | 84%
COc1cc2c(Nc3ccc(NC(=O)c4ccccc4)cc3)ncnc2cc1OCCCN1CCOCC1 | 17%
C=CC(=O)Nc1ccc(C(=O)c2sc(Nc3ccc(N4CCN(C)CC4)cc3OC)nc2N)cc1 | 96%

Then there is this compound:
State the recorded kinase still bound, per cent of control for this entry: CCN(CCO)CCCOc1ccc2c(Nc3cc(CC(=O)Nc4cccc(F)c4)[nH]n3)ncnc2c1
37%
